target: Epidermal growth factor receptor (Homo sapiens, UniProt P00533); note: in the data inactive means no Kd found up to 30 µM
Sequence (P00533 whole entry): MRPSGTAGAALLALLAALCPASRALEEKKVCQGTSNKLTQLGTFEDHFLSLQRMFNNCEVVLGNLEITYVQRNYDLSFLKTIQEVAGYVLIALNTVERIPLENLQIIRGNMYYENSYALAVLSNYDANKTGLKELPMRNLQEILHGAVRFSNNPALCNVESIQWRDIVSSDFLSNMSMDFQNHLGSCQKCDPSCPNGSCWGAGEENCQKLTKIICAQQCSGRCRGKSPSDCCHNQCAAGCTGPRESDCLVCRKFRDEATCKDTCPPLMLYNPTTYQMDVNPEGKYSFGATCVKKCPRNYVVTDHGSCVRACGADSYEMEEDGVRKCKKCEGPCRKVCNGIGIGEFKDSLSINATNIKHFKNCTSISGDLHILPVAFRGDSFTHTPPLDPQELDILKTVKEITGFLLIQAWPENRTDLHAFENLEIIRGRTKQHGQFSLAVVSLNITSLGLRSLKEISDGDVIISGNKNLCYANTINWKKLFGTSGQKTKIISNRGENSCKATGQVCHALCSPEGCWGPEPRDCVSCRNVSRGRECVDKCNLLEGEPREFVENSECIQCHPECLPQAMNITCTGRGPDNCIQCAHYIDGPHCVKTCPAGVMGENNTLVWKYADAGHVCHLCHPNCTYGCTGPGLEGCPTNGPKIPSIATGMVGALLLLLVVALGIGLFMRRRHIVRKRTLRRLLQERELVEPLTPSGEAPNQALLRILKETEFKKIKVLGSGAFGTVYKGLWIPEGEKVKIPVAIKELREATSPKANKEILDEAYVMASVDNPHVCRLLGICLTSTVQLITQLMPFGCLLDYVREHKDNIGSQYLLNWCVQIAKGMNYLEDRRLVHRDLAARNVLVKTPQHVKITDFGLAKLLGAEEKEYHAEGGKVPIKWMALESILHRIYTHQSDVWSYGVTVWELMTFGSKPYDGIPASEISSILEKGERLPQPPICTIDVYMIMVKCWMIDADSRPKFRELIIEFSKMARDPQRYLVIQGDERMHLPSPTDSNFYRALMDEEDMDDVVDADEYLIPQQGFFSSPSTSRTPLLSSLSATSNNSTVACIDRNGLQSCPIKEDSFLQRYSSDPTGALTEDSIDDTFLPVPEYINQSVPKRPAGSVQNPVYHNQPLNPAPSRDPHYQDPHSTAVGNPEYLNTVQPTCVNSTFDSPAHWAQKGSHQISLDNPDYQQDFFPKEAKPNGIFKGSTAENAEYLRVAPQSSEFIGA
Calls of active or inactive are those of the source.
Select the correct class. Options are active, inactive and nothing else.

### Prompt Given "CO[C@H]1C[C@@H]2CC[C@@H](C)[C@@](O)(O2)C(=O)C(=O)N2CCCC[C@H]2C(=O)O[C@H]([C@H](C)C[C@@H]2CC[C@@H](OP(C)(C)=O)[C@H](OC)C2)CC(=O)[C@H](C)/C=C(\C)[C@@H](O)[C@@H](OC)C(=O)[C@H](C)C[C@H](C)/C=C/C=C/C=C/1C" , state the outcome it received in this test.
### Response inactive

### Prompt Given "O=C(Nc1nc2cccc(-c3ccc(CN4CCS(=O)(=O)CC4)cc3)n2n1)C1CC1" , state the outcome it received in this test.
### Response inactive

### Prompt Given "Cc1nc(Nc2n[nH]c3c2CN(C(=O)N[C@H](CN(C)C)c2ccccc2)C3(C)C)c2sccc2n1" , state the outcome it received in this test.
### Response inactive

### Prompt Given "Cn1ncc(Cl)c1-c1cc(C(=O)N[C@H](CN)Cc2ccc(F)c(F)c2)oc1Cl" , state the outcome it received in this test.
### Response inactive

### Prompt Given "Cn1cc(-c2cnn3c(N)c(Br)c([C@@H]4CCCNC4)nc23)cn1" , state the outcome it received in this test.
### Response inactive

### Prompt Given "Cn1cc(-c2cnc3ccc4ccc(CS(=O)(=O)NCc5ccccn5)cc4c(=O)c3c2)cn1" , state the outcome it received in this test.
### Response inactive

### Prompt Given "COCc1c(-c2ccc(NC(=O)Nc3cc(C(F)(F)F)ccc3F)c(F)c2)c2c(N)ncnn2c1CN1CCOCC1" , state the outcome it received in this test.
### Response inactive

### Prompt Given "CCS(=O)(=O)c1cccc(-c2cc(C(=O)NC3CCN(C)CC3)c(C)c3[nH]c4ncc(C)cc4c23)c1" , state the outcome it received in this test.
### Response active

### Prompt Given "CN(C[C@@H]1COCCO1)S(=O)(=O)Nc1ccc2ccc3ncc(-c4cnn(C)c4)cc3c(=O)c2c1" , state the outcome it received in this test.
### Response inactive

### Prompt Given "CO[C@H]1C[C@@H]2CC[C@@H](C)[C@@](O)(O2)C(=O)C(=O)N2CCCC[C@H]2C(=O)O[C@H]([C@H](C)C[C@@H]2CC[C@@H](O)[C@H](OC)C2)CC(=O)[C@H](C)/C=C(\C)[C@@H](O)[C@@H](OC)C(=O)[C@H](C)C[C@H](C)/C=C/C=C/C=C/1C" , state the outcome it received in this test.
### Response inactive

### Prompt Given "COc1cc([C@@H]2c3cc4c(cc3[C@H](O)[C@H]3COC(=O)[C@@H]23)OCO4)cc(OC)c1OC" , state the outcome it received in this test.
### Response inactive

### Prompt Given "CO[C@H]1C[C@@H]2CC[C@@H](C)[C@@](O)(O2)C(=O)C(=O)N2CCCC[C@H]2C(=O)O[C@H]([C@H](C)C[C@@H]2CC[C@@H](OC(=O)C(C)(CO)CO)[C@H](OC)C2)CC(=O)[C@H](C)/C=C(\C)[C@@H](O)[C@@H](OC)C(=O)[C@H](C)C[C@H](C)/C=C/C=C/C=C/1C" , state the outcome it received in this test.
### Response inactive
